Reference for the values: BigSolDB 2.1

# assay-context: in n-propanol, 308.15 K
property-label: solubility (mole fraction)
Answer using only a numeral; do not append any unit.

The molecule listed as `CC(=O)Nc1ccccc1[N+](=O)[O-]` shows solubility (mole fraction) equal to 0.0331

----------
# assay-context: in DMF, 288.15 K
property-label: solubility (mole fraction)

`CC(=O)Nc1ccccc1[N+](=O)[O-]` yielded solubility (mole fraction) of 0.192

----------
# assay-context: in DMF, 323.15 K
property-label: solubility (mole fraction)
// no unit, no text: just the number

Given item `CC(=O)Nc1ccccc1[N+](=O)[O-]` , the value recorded as its solubility (mole fraction) is 0.426

----------
# assay-context: in isopropanol, 288.15 K
property-label: solubility (mole fraction)

`CC(=O)Nc1ccccc1[N+](=O)[O-]` yielded solubility (mole fraction) of 0.00991

----------
# assay-context: in n-heptanol, 293.15 K
property-label: solubility (mole fraction)
Enter the number alone.

Just so you know, measured solubility (mole fraction) for `CC(=O)Nc1ccccc1[N+](=O)[O-]` came out at 0.0105

----------
# assay-context: in ethylene glycol, 288.15 K
property-label: solubility (mole fraction)

Short answer for `CC(=O)Nc1ccccc1[N+](=O)[O-]` : solubility (mole fraction) was 0.00599

----------
# assay-context: in cyclohexane, 318.15 K
property-label: solubility (mole fraction)

solubility (mole fraction) measured on `CC(=O)Nc1ccccc1[N+](=O)[O-]` = 0.00634

----------
# assay-context: in isobutanol, 323.15 K
property-label: solubility (mole fraction)
Lab note: jot the number down without any unit.

solubility (mole fraction) reported for this molecule `CC(=O)Nc1ccccc1[N+](=O)[O-]` : 0.0483

----------
# assay-context: in n-butanol, 278.15 K
property-label: solubility (mole fraction)
Write no unit; give the number alone.

Lab book: solubility (mole fraction) of `CC(=O)Nc1ccccc1[N+](=O)[O-]` noted as 0.00975

----------
# assay-context: in water, 298.15 K
property-label: solubility (mole fraction)
// keep it numeric: no unit symbol after the value

Value of solubility (mole fraction) reported for the compound `CC(=O)Nc1ccccc1[N+](=O)[O-]` is 0.000249

----------
# assay-context: in water, 288.15 K
property-label: solubility (mole fraction)

The compound identified as `CC(=O)Nc1ccccc1[N+](=O)[O-]` registered its solubility (mole fraction) at 0.00016

----------
# assay-context: in acetonitrile, 278.15 K
property-label: solubility (mole fraction)
Provide a numeric answer; units are not to be included.

get_value(item= `CC(=O)Nc1ccccc1[N+](=O)[O-]` , readout=solubility (mole fraction)) returns 0.0156

----------
# assay-context: in ethylene glycol, 298.15 K
property-label: solubility (mole fraction)
# print the numeric value only

Measured solubility (mole fraction) of `CC(=O)Nc1ccccc1[N+](=O)[O-]` : 0.00855

----------
# assay-context: in 1,4-dioxane, 308.15 K
property-label: solubility (mole fraction)

`CC(=O)Nc1ccccc1[N+](=O)[O-]` has a reported solubility (mole fraction) of 0.211

----------
# assay-context: in water, 308.15 K
property-label: solubility (mole fraction)
Please state the value as a number alone, without comment.

Looking up `CC(=O)Nc1ccccc1[N+](=O)[O-]` , I found its solubility (mole fraction) recorded as 0.000412

----------
# assay-context: in acetonitrile, 283.15 K
property-label: solubility (mole fraction)
Answer with the value's number alone.

Short answer for `CC(=O)Nc1ccccc1[N+](=O)[O-]` : solubility (mole fraction) was 0.0176

----------
# assay-context: in ethylene glycol, 293.15 K
property-label: solubility (mole fraction)
# print the numeric value only

What the record says about `CC(=O)Nc1ccccc1[N+](=O)[O-]` : solubility (mole fraction) is 0.00714

----------
# assay-context: in DMF, 303.15 K
property-label: solubility (mole fraction)
Write the number on its own, no unit after it.

// sample `CC(=O)Nc1ccccc1[N+](=O)[O-]` , its solubility (mole fraction) was 0.266

----------
# assay-context: in ethyl acetate, 298.15 K
property-label: solubility (mole fraction)
Give the figure only, with no unit attached.

For `CC(=O)Nc1ccccc1[N+](=O)[O-]` the compound record lists solubility (mole fraction) as 0.094

----------
# assay-context: in n-propanol, 288.15 K
property-label: solubility (mole fraction)
Keep it simple and answer with nothing but the number.

Sample `CC(=O)Nc1ccccc1[N+](=O)[O-]` ; solubility (mole fraction) observed: 0.0167
